Data provenance: patent US7033991

- Measurement Target: T1, Furin (recombinant, truncated) (mouse), P23188
- T1 chain: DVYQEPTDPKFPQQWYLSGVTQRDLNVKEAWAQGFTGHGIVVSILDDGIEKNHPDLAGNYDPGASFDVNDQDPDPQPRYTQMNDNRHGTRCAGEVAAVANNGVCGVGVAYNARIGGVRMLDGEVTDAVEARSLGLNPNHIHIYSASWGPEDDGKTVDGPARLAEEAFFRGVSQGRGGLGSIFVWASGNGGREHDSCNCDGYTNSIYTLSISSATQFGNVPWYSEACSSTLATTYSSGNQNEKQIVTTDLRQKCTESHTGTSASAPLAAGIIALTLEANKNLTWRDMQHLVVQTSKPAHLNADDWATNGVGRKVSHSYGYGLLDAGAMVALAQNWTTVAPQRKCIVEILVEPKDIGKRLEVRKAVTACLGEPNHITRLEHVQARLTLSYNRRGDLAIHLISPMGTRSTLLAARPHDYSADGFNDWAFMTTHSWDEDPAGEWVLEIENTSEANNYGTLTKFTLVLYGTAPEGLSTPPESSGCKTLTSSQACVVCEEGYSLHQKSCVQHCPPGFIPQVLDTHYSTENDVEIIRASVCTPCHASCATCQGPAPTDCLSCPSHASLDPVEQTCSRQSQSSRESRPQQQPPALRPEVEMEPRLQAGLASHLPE
- Condition Set: modification not given
Quantity Kind: Ki (µM)

{"Binder": "RRRR [Tetra-L-arginine]", "Unit Tag": "µM", "Reported Value": 6.4}
